src = the Human Domainome abundance scans (Beltran et al. 2025)

B1: SAM and SH3 domain-containing protein 1, residues 630 to 700; numbered along this chain, O94885 (parent)
chain: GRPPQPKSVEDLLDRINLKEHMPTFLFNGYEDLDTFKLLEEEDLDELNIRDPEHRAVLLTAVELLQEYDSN

Variants of: B1
Test: abundance fitness (aPCA) (normalised: wild type 0, dead -1); higher = more abundant; growth selection in yeast, the domain comes from the species named
Conditions: Homo sapiens
Quick list: abundance fitness per entry.
Value kind: abundance fitness

biosequence=GRPPQPKSVEDLLQRINLKEHMPTFLFNGYEDLDTFKLLEEEDLDELNIRDPEHRAVLLTAVELLQEYDSN value_kind="abundance fitness" test_result=-0.269
biosequence=GRPPQPKSVEDLADRINLKEHMPTFLFNGYEDLDTFKLLEEEDLDELNIRDPEHRAVLLTAVELLQEYDSN value_kind="abundance fitness" test_result=-0.788
biosequence=GRPPQPKSVEDLLDRINLKEHMPTFLFNGYEDDDTFKLLEEEDLDELNIRDPEHRAVLLTAVELLQEYDSN value_kind="abundance fitness" test_result=-0.76
biosequence=GRPPQPKSVEDLLDRINLKEHMPTFLFNGYEDLDTFKLLEEEDLDELNIRDEEHRAVLLTAVELLQEYDSN value_kind="abundance fitness" test_result=-0.317
biosequence=GRPPQPKSVEDLLDRINLKEHMPTFLFNGYEDLDTFKLLEEEDLDELNIRDPEHRAVLLTAVELEQEYDSN value_kind="abundance fitness" test_result=-0.758
biosequence=GRPPQPKSVEDLLDIINLKEHMPTFLFNGYEDLDTFKLLEEEDLDELNIRDPEHRAVLLTAVELLQEYDSN value_kind="abundance fitness" test_result=-0.23
biosequence=QRPPQPKSVEDLLDRINLKEHMPTFLFNGYEDLDTFKLLEEEDLDELNIRDPEHRAVLLTAVELLQEYDSN value_kind="abundance fitness" test_result=0.109
biosequence=GRPPQPKSVEDLLDRINLKEHMPTFLFNGYEDLDTFKLLMEEDLDELNIRDPEHRAVLLTAVELLQEYDSN value_kind="abundance fitness" test_result=-0.246
biosequence=GRPPQPKSVEDLLDDINLKEHMPTFLFNGYEDLDTFKLLEEEDLDELNIRDPEHRAVLLTAVELLQEYDSN value_kind="abundance fitness" test_result=-0.454
biosequence=GRPPQPKSVEDLLDRINLKEHMPTFLFNGYEDLDTFKLLEEEDLDELNIRDPEHRAVLLTIVELLQEYDSN value_kind="abundance fitness" test_result=-0.983
biosequence=GRPPQPKSVEDLLDRINLKEHMPTFLFNGYEDLDTFKLLEEEDLDELNIRDPEHRAVLLTAVELLQYYDSN value_kind="abundance fitness" test_result=-0.396
biosequence=GRPPQPKSVEDLLDRINLKEHMPTFLFNGYEDLDTFKLLEEEDLDELNIRDPEHRAVYLTAVELLQEYDSN value_kind="abundance fitness" test_result=-0.905
biosequence=GRPPQPKSVEDLLDRINLKEHMPTFLFNGYEDLDTCKLLEEEDLDELNIRDPEHRAVLLTAVELLQEYDSN value_kind="abundance fitness" test_result=-0.849
biosequence=GRPPQPKSVEDLLDRINLKEHMPTFLFNGYEDLDTFKLLEEEDLDELNIRDPEHRAVTLTAVELLQEYDSN value_kind="abundance fitness" test_result=-0.72
biosequence=GRPPQPKSVEDLLDRINLKEHMPTFLFNGYEDLDTFKLLEEEDLDELNIRDPEHRAVLLEAVELLQEYDSN value_kind="abundance fitness" test_result=0.398
biosequence=GRPPQPKSVEDLLDRINLKEHMPTFLFNGYEDLDTFKLLEEEDLDELNIRDPEHRAVLLTAVETLQEYDSN value_kind="abundance fitness" test_result=0.166
biosequence=GRPPQPKSVEILLDRINLKEHMPTFLFNGYEDLDTFKLLEEEDLDELNIRDPEHRAVLLTAVELLQEYDSN value_kind="abundance fitness" test_result=-1.08
biosequence=GRPPQPKSVEDLLDRINLKEHMPTFLFNGYEDLDTFKLLEEEDLDELNIRDPEHRAVLLTAVELLQIYDSN value_kind="abundance fitness" test_result=-0.492
biosequence=GRPPQPKSVEDLLDRINLKEHMPTFLFNGYEELDTFKLLEEEDLDELNIRDPEHRAVLLTAVELLQEYDSN value_kind="abundance fitness" test_result=-0.275
biosequence=GRPPQPKSVEDLLDRINLKEHMPTFLFNGYEDLDTFKLLEEEDLDELNIRDPEHRAVLLTAVEPLQEYDSN value_kind="abundance fitness" test_result=-0.595
biosequence=GRPPQPKSVEDLLDRDNLKEHMPTFLFNGYEDLDTFKLLEEEDLDELNIRDPEHRAVLLTAVELLQEYDSN value_kind="abundance fitness" test_result=-0.703
biosequence=GRPPQPKSVEDLLDRINLKENMPTFLFNGYEDLDTFKLLEEEDLDELNIRDPEHRAVLLTAVELLQEYDSN value_kind="abundance fitness" test_result=-0.689
biosequence=GRPPQPKSVEDLLDRINLKEHMPTFLFNGYEDLDTFKLLEEEDLDELNIRDPEHRAVLLTAVELLQRYDSN value_kind="abundance fitness" test_result=-0.167
biosequence=GRPPQPKSVEDLLDRINLKVHMPTFLFNGYEDLDTFKLLEEEDLDELNIRDPEHRAVLLTAVELLQEYDSN value_kind="abundance fitness" test_result=-0.203
biosequence=GRPPQPKSVEDLLDRINLKEHMPTFLFNGYEDLDTFKLLEEEDLDELNIRDPEHRAVLLTAVELLQEYVSN value_kind="abundance fitness" test_result=-0.971
biosequence=GRPPQPKSVEDLLDRINLKEHMPTFLFNGYEDLDTFKLLEEEDLDELNIRDPEHRALLLTAVELLQEYDSN value_kind="abundance fitness" test_result=0.199
biosequence=GRPPQPKSVEDLLDRINLKEHMPTFFFNGYEDLDTFKLLEEEDLDELNIRDPEHRAVLLTAVELLQEYDSN value_kind="abundance fitness" test_result=-0.167
biosequence=GRPPQPKSVEDLLDRINLKEHMPTFLFNGYEDLDTFKLLEEERLDELNIRDPEHRAVLLTAVELLQEYDSN value_kind="abundance fitness" test_result=-0.385
biosequence=GRPPQPKSVEDLLDRINLKEHMPTFLFNGYEDLDTFKLLEEEDLDELNIRDPEHRAVLLTNVELLQEYDSN value_kind="abundance fitness" test_result=-0.479
biosequence=GRPPQPKSVEDLLDRINLKEHMPTFLFNGYEDLDTPKLLEEEDLDELNIRDPEHRAVLLTAVELLQEYDSN value_kind="abundance fitness" test_result=-0.9
biosequence=GRPPQPKSVEDLLDRINLKEHMPTFLFNGYEDLDTFKLLEEEDLDELNIRDPEHRAVLLTAVELNQEYDSN value_kind="abundance fitness" test_result=-0.841
biosequence=GRPPQPKSVEDLLDRINLKEHMPTFLQNGYEDLDTFKLLEEEDLDELNIRDPEHRAVLLTAVELLQEYDSN value_kind="abundance fitness" test_result=0.393
biosequence=GRPPQPKSVEDLLDRINLKEHMPTFLFNGYEDLCTFKLLEEEDLDELNIRDPEHRAVLLTAVELLQEYDSN value_kind="abundance fitness" test_result=-0.468
biosequence=GRPPQPKSVEDLLDRINLKEHMPTFLFNGYEDLETFKLLEEEDLDELNIRDPEHRAVLLTAVELLQEYDSN value_kind="abundance fitness" test_result=0.041
biosequence=GRPPQPKSVEDLLDRINLKEHMPPFLFNGYEDLDTFKLLEEEDLDELNIRDPEHRAVLLTAVELLQEYDSN value_kind="abundance fitness" test_result=-0.88
biosequence=GRPPQPKSVEDLLSRINLKEHMPTFLFNGYEDLDTFKLLEEEDLDELNIRDPEHRAVLLTAVELLQEYDSN value_kind="abundance fitness" test_result=-0.168
biosequence=GRPPQPKSVEDLLDRINLKEHMYTFLFNGYEDLDTFKLLEEEDLDELNIRDPEHRAVLLTAVELLQEYDSN value_kind="abundance fitness" test_result=-0.271
biosequence=GRPPQPKSVEDLLDRINLKEHMPTFLFNGYEDLDTFKLLEEEDLDELNIRDPSHRAVLLTAVELLQEYDSN value_kind="abundance fitness" test_result=-0.126
biosequence=GRPPQPKSVEDLLDRINLKEHMPTFLFNGYEDLDTFKLLEEEMLDELNIRDPEHRAVLLTAVELLQEYDSN value_kind="abundance fitness" test_result=-0.594
biosequence=GRPPQPKSVEDLLDRINLKEHMPTFLFNGYEDLDTFKLLEEEDLDELNIRDPEHRAVLVTAVELLQEYDSN value_kind="abundance fitness" test_result=-0.735
biosequence=GRPPQPKSVEDLLDRINLKEHMPTFLFNGYEDLDTFKLLEEEDLDELNIRMPEHRAVLLTAVELLQEYDSN value_kind="abundance fitness" test_result=-0.845
biosequence=GRPPQPKSVEDLLDRINLKEHMPTFLFNGYEDLDTFKLLEEEDLDELNIRDPEHAAVLLTAVELLQEYDSN value_kind="abundance fitness" test_result=-0.9
biosequence=GRPPQPKSVEDLLDRINLKEHMPTFLFNGYEDLDTFTLLEEEDLDELNIRDPEHRAVLLTAVELLQEYDSN value_kind="abundance fitness" test_result=-0.615
biosequence=GRPPQPKSVEDLLDRINLKEHMPTFLFNGYEDLDTFKLLTEEDLDELNIRDPEHRAVLLTAVELLQEYDSN value_kind="abundance fitness" test_result=0.398
biosequence=GRPPQPKSVEDLLDRINLKEHMPTFLFNGYEDLDTFKLLEEEDLDELNIRDPEHEAVLLTAVELLQEYDSN value_kind="abundance fitness" test_result=-0.522
biosequence=GRPPQPKSVEDVLDRINLKEHMPTFLFNGYEDLDTFKLLEEEDLDELNIRDPEHRAVLLTAVELLQEYDSN value_kind="abundance fitness" test_result=-0.464
